The measured values listed here are drawn from paper PMC9144902.

Give Epa(f), anodic potential for every item shown.
# System: CT DNA
# Procedure Summary: Study of the DNA-interaction by cyclic voltammetry
# Type: binding, calf
# Experimental Conditions: M(II)/M(I), 1:2 DMSO/buffer, absence of CT DNA
Answers are plain numbers, in mV.

In the examples that follow, each entry is paired with its recorded Epa(f), anodic potential.
>>> meas_value("CN1CCN(c2c(F)cc3c(=O)c(C(=O)[O-])cn(CCF)c3c2F)CC1.CN1CCN(c2c(F)cc3c(=O)c(C(=O)[O-])cn(CCF)c3c2F)CC1.CO.CO.[Co+2] [complex 4, [Co(flrx)2(MeOH)2]]")
"−483"
>>> meas_value("CN1CCN(c2c(F)cc3c(=O)c(C(=O)[O-])cn(CCF)c3c2F)CC1.[Cl-].[Cu+2].c1cnc2c(c1)ccc1cccnc12 [complex 8, [Cu(flrx)(phen)Cl]]")
"−483"
>>> meas_value("CN1CCN(c2c(F)cc3c(=O)c(C(=O)[O-])cn(CCF)c3c2F)CC1.CN1CCN(c2c(F)cc3c(=O)c(C(=O)[O-])cn(CCF)c3c2F)CC1.[Co+2].c1cnc2c(c1)ccc1cccnc12 [complex 17, [Co(flrx)2(phen)]]")
"−523"
>>> meas_value("CN1CCN(c2c(F)cc3c(=O)c(C(=O)[O-])cn(CCF)c3c2F)CC1.CN1CCN(c2c(F)cc3c(=O)c(C(=O)[O-])cn(CCF)c3c2F)CC1.O.O.[Mn+2] [complex 2, [Mn(flrx)2(H2O)2]]")
"−455"
>>> meas_value("CN1CCN(c2c(F)cc3c(=O)c(C(=O)[O-])cn(CCF)c3c2F)CC1.[Cl-].[Cu+2].c1ccc(Nc2ccccn2)nc1 [complex 7, [Cu(flrx)(bipyam)Cl]]")
"−426"

Please go through the list and note Epa(f), anodic potential for each compound.
1. CN1CCN(c2c(F)cc3c(=O)c(C(=O)[O-])cn(CCF)c3c2F)CC1.CN1CCN(c2c(F)cc3c(=O)c(C(=O)[O-])cn(CCF)c3c2F)CC1.[Co+2].c1ccc(-c2ccccn2)nc1 [complex 15, [Co(flrx)2(bipy)]]
2. CN1CCN(c2c(F)cc3c(=O)c(C(=O)[O-])cn(CCF)c3c2F)CC1.CN1CCN(c2c(F)cc3c(=O)c(C(=O)[O-])cn(CCF)c3c2F)CC1.[Mn+2].c1ccc(Nc2ccccn2)nc1 [complex 10, [Mn(flrx)2(bipyam)]]
3. CN1CCN(c2c(F)cc3c(=O)c(C(=O)[O-])cn(CCF)c3c2F)CC1.CN1CCN(c2c(F)cc3c(=O)c(C(=O)[O-])cn(CCF)c3c2F)CC1.[Co+2].c1ccc(Nc2ccccn2)nc1 [complex 16, [Co(flrx)2(bipyam)]]
4. CN1CCN(c2c(F)cc3c(=O)c(C(=O)[O-])cn(CCF)c3c2F)CC1.CN1CCN(c2c(F)cc3c(=O)c(C(=O)[O-])cn(CCF)c3c2F)CC1.[Ni+2].c1ccc(Nc2ccccn2)nc1 [complex 18, [Ni(flrx)2(bipyam)]]

["−533", "−495", "−466", "−523"]

###

Consider the following compounds; for each one, report its Kr/Kox, ratio of equilibrium DNA-binding constants (reduced/oxidized form).
# Test system: CT DNA
# Procedure Summary: Study of the DNA-interaction by cyclic voltammetry
# Assay type: binding, calf
# Experimental Conditions: eq. S6
Numbers only.

Consider the worked cases shown below.
>>> meas_value("CN1CCN(c2c(F)cc3c(=O)c(C(=O)[O-])cn(CCF)c3c2F)CC1.CN1CCN(c2c(F)cc3c(=O)c(C(=O)[O-])cn(CCF)c3c2F)CC1.[Mn+2].c1cnc2c(c1)ccc1cccnc12 [complex 11, [Mn(flrx)2(phen)]]")
1.07
>>> meas_value("CN1CCN(c2c(F)cc3c(=O)c(C(=O)[O-])cn(CCF)c3c2F)CC1.CN1CCN(c2c(F)cc3c(=O)c(C(=O)[O-])cn(CCF)c3c2F)CC1.[Co+2].c1ccc(Nc2ccccn2)nc1 [complex 16, [Co(flrx)2(bipyam)]]")
1.08
>>> meas_value("CN1CCN(c2c(F)cc3c(=O)c(C(=O)[O-])cn(CCF)c3c2F)CC1.CN1CCN(c2c(F)cc3c(=O)c(C(=O)[O-])cn(CCF)c3c2F)CC1.CO.CO.[Ni+2] [complex 5, [Ni(flrx)2(MeOH)2]]")
0.99
>>> meas_value("CN1CCN(c2c(F)cc3c(=O)c(C(=O)[O-])cn(CCF)c3c2F)CC1.CN1CCN(c2c(F)cc3c(=O)c(C(=O)[O-])cn(CCF)c3c2F)CC1.[Ni+2].c1ccc(Nc2ccccn2)nc1 [complex 18, [Ni(flrx)2(bipyam)]]")
1.15
>>> meas_value("CN1CCN(c2c(F)cc3c(=O)c(C(=O)[O-])cn(CCF)c3c2F)CC1.[Cl-].[Cu+2].c1ccc(-c2ccccn2)nc1 [complex 6, [Cu(flrx)(bipy)Cl]]")
2.28

Could you tell me Kr/Kox, ratio of equilibrium DNA-binding constants (reduced/oxidized form) for each of these compounds? They are listed below.
1. CN1CCN(c2c(F)cc3c(=O)c(C(=O)[O-])cn(CCF)c3c2F)CC1.CN1CCN(c2c(F)cc3c(=O)c(C(=O)[O-])cn(CCF)c3c2F)CC1.O.O.[Mn+2] [complex 2, [Mn(flrx)2(H2O)2]]
2. CN1CCN(c2c(F)cc3c(=O)c(C(=O)[O-])cn(CCF)c3c2F)CC1.[Cl-].[Cu+2].c1ccc(Nc2ccccn2)nc1 [complex 7, [Cu(flrx)(bipyam)Cl]]

1. 0.96
2. 3.41

###

# Test Target: bovine serum albumin (BSA) (Bos taurus, UniProt P02769)
# Construct: purchased
# Sequence (P02769 25-607): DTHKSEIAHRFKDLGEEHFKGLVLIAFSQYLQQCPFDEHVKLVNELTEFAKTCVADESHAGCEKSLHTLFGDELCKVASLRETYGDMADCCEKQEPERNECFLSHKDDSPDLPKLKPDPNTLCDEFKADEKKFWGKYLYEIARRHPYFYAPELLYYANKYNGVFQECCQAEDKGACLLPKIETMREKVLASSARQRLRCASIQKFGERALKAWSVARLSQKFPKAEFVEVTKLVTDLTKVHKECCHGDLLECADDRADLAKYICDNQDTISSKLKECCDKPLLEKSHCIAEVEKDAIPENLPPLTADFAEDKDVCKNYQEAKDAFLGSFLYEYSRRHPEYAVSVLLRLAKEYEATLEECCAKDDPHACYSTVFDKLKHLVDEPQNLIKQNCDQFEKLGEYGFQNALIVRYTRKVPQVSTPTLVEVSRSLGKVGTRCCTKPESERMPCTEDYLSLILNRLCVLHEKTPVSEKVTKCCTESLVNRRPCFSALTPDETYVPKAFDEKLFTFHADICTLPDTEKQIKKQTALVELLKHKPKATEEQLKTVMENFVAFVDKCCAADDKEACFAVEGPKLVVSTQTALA
# Procedure Summary: Albumin binding by tryptophan fluorescence emission quenching
# Experimental Conditions: BSA 3 μM, buffer pH 7.0, λexc 295 nm, Stern–Volmer, τ0 = 10^–8 s
Endpoint Label: kq(BSA), BSA-quenching constant

A selection of reference data follows.
>>> meas_value("CN1CCN(c2c(F)cc3c(=O)c(C(=O)[O-])cn(CCF)c3c2F)CC1.CN1CCN(c2c(F)cc3c(=O)c(C(=O)[O-])cn(CCF)c3c2F)CC1.[Mn+2].c1cnc2c(c1)ccc1cccnc12 [complex 11, [Mn(flrx)2(phen)]]")
"1.65(±0.04) × 10^13 M^−1s^−1"
>>> meas_value("CN1CCN(c2c(F)cc3c(=O)c(C(=O)[O-])cn(CCF)c3c2F)CC1.CN1CCN(c2c(F)cc3c(=O)c(C(=O)[O-])cn(CCF)c3c2F)CC1.CO.CO.[Ni+2] [complex 5, [Ni(flrx)2(MeOH)2]]")
"2.37(±0.13) × 10^13 M^−1s^−1"
>>> meas_value("CN1CCN(c2c(F)cc3c(=O)c(C(=O)[O-])cn(CCF)c3c2F)CC1.CN1CCN(c2c(F)cc3c(=O)c(C(=O)[O-])cn(CCF)c3c2F)CC1.[Co+2].c1ccc(-c2ccccn2)nc1 [complex 15, [Co(flrx)2(bipy)]]")
"5.12(±0.17) × 10^13 M^−1s^−1"

Then this molecule:
Given the entry CN1CCN(c2c(F)cc3c(=O)c(C(=O)[O-])cn(CCF)c3c2F)CC1.CN1CCN(c2c(F)cc3c(=O)c(C(=O)[O-])cn(CCF)c3c2F)CC1.[Ni+2].c1cnc2c(c1)ccc1cccnc12 [complex 19, [Ni(flrx)2(phen)]] , report its measured kq(BSA), BSA-quenching constant.
1.39(±0.04) × 10^13 M^−1s^−1

###

# System: Bacillus subtilis ATCC 6633
# Procedure Summary: Antimicrobial activity, MIC determination
# Assay type: cell-based
# Experimental Conditions: B. subtilis; 24-h incubation, 37°C
Please respond with reported MIC (values in parentheses) for every item in the list.
One number for each entry, in µM.

Some solved entries appear below for comparison.
>>> meas_value("CN1CCN(c2c(F)cc3c(=O)c(C(=O)[O-])cn(CCF)c3c2F)CC1.CN1CCN(c2c(F)cc3c(=O)c(C(=O)[O-])cn(CCF)c3c2F)CC1.[Ni+2].c1ccc(Nc2ccccn2)nc1 [complex 18, [Ni(flrx)2(bipyam)]]")
8.3
>>> meas_value("CN1CCN(c2c(F)cc3c(=O)c(C(=O)[O-])cn(CCF)c3c2F)CC1.CN1CCN(c2c(F)cc3c(=O)c(C(=O)[O-])cn(CCF)c3c2F)CC1.[Zn+2].c1cnc2c(c1)ccc1cccnc12 [complex 14, [Zn(flrx)2(phen)]]")
8.1
>>> meas_value("CN1CCN(c2c(F)cc3c(=O)c(C(=O)[O-])cn(CCF)c3c2F)CC1.CN1CCN(c2c(F)cc3c(=O)c(C(=O)[O-])cn(CCF)c3c2F)CC1.[Mn+2].c1ccc(Nc2ccccn2)nc1 [complex 10, [Mn(flrx)2(bipyam)]]")
16.6

Count: 4. Required value per item: MIC (values in parentheses).
1. CN1CCN(c2c(F)cc3c(=O)c(C(=O)[O-])cn(CCF)c3c2F)CC1.CN1CCN(c2c(F)cc3c(=O)c(C(=O)[O-])cn(CCF)c3c2F)CC1.[Ni+2].c1cnc2c(c1)ccc1cccnc12 [complex 19, [Ni(flrx)2(phen)]]
2. CN1CCN(c2c(F)cc3c(=O)c(C(=O)[O-])cn(CCF)c3c2F)CC1.CN1CCN(c2c(F)cc3c(=O)c(C(=O)[O-])cn(CCF)c3c2F)CC1.CO.CO.[Zn+2] [complex 3, [Zn(flrx)2(MeOH)2]]
3. CN1CCN(c2c(F)cc3c(=O)c(C(=O)[O-])cn(CCF)c3c2F)CC1.CN1CCN(c2c(F)cc3c(=O)c(C(=O)[O-])cn(CCF)c3c2F)CC1.CO.CO.[Ni+2] [complex 5, [Ni(flrx)2(MeOH)2]]
4. CN1CCN(c2c(F)cc3c(=O)c(C(=O)[O-])cn(CCF)c3c2F)CC1.[Cl-].[Cu+2].c1cnc2c(c1)ccc1cccnc12 [complex 8, [Cu(flrx)(phen)Cl]]

[8.2, 9.2, 4.6, 12.3]

// for each molecule in input: emit MIC (values in parentheses)
1. CN1CCN(c2c(F)cc3c(=O)c(C(=O)[O-])cn(CCF)c3c2F)CC1.[Cl-].[Cu+2].c1ccc(-c2ccccn2)nc1 [complex 6, [Cu(flrx)(bipy)Cl]]
2. CN1CCN(c2c(F)cc3c(=O)c(C(=O)[O-])cn(CCF)c3c2F)CC1.CN1CCN(c2c(F)cc3c(=O)c(C(=O)[O-])cn(CCF)c3c2F)CC1.[Cu+2] [complex 1, [Cu(flrx)2]]

1. 12.8
2. 10.0
